Ref: paper PMC11852163

- study_target: CD44-HABD (UniProt P16070 20-178)
- Sequence (P16070 20-178): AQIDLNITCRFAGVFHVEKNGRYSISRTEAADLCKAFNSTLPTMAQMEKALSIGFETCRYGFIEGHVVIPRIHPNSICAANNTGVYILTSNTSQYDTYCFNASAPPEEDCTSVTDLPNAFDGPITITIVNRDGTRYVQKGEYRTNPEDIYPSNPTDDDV
- experiment_description: filter binding; Filter binding: 1 nM biotinylated XA, 20 mM Tris pH 8.0, 150 mM NaCl, 40 min, room temperature; cell binding at room temperature, 30-60 min
- assay_setup: protein: recombinant; label: biotin
Reported values of Kd for individual entries

binder	Kd, nM
TGCAGATCTGCAAGGGAACCAAGGACACTAC (XNA, ADDA form; no X in the printed sequence, X position unknown; monothioate backbone) [XA2-ADDA]	109
TGCAGATCTGCAAGGGAACCAAGGACACTAC (XNA, NH2 form; no X in the printed sequence, X position unknown; monothioate backbone) [XA2-NH2]	62.9
